Property: Kd; scope: individual compounds
- target or system: human integrin αvβ5 (Homo sapiens, UniProt P06756+P18084)
- Sequence (P06756 31-1048): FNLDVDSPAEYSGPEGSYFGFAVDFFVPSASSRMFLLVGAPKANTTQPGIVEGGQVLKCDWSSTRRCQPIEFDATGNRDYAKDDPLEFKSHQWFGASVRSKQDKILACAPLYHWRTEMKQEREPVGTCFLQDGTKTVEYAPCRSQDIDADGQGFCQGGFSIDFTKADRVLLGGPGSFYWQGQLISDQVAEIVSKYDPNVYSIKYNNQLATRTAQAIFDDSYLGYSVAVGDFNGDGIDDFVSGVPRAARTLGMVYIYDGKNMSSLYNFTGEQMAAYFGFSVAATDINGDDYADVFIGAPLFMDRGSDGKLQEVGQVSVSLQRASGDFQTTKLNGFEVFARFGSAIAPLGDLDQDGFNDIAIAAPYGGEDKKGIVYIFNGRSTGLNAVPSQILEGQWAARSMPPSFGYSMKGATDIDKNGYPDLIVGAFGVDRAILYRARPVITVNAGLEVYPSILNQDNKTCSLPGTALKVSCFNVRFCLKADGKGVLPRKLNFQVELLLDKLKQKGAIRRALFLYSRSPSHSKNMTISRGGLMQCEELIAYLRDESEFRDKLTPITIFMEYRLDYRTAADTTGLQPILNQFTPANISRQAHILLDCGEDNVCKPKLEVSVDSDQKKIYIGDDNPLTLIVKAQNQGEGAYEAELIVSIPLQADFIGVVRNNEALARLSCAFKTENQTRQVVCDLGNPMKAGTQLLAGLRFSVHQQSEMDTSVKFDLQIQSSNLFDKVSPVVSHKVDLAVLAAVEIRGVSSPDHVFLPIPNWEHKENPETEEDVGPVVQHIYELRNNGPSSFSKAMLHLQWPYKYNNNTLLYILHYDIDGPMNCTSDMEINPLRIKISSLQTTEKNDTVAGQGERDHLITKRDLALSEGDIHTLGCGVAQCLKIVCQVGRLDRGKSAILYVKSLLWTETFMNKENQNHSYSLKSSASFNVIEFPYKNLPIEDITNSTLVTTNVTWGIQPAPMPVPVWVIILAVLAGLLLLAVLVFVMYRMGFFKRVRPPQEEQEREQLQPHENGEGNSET
- Sequence (P18084 24-799): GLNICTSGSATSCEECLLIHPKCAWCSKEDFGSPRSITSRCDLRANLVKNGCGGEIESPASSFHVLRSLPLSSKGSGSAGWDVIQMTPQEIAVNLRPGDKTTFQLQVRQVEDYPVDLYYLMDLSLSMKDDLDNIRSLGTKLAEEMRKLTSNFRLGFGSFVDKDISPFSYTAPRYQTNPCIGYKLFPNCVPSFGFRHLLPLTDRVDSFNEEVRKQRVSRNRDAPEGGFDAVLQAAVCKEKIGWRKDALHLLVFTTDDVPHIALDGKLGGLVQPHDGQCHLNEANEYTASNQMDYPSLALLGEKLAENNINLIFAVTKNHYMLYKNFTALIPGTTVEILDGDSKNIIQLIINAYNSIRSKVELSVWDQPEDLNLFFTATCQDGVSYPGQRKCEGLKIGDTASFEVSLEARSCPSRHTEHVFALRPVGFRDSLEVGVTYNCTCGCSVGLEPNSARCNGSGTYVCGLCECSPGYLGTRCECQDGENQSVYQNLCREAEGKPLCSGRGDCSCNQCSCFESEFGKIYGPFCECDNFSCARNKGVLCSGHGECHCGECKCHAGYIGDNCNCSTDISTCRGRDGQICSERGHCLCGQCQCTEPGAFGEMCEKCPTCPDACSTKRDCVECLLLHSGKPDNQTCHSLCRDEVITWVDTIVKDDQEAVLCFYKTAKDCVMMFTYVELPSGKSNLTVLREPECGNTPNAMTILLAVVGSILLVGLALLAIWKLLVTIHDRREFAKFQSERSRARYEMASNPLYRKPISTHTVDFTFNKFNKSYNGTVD
- assay notes: Evaluation of integrin binding property (surface plasmon resonance, Biacore 3000, immobilized cyclic peptide)
- study conditions: SPR, 25° C., HEPES buffer with 5 mM magnesium chloride, integrin 30-1,000 nM; read-out: Performance evaluation: Binding activity (dissociation constant between the cyclic peptide and human integrin αvβ5)
Starred links: 1 amine or outer side, 2 acyl side, 3 side chain; linkers in the order of their positions; H or OH if unused. Positions of bridges follow the written chain, without caps; N, C: chain ends. Non-standard residues stand in square brackets, D forms with d. Residues, ends and D or L forms follow the SMILES beside them. hCys = N[C@@H](CCS)C(=O)O; Dab = NCC[C@H](N)C(=O)O; Dap = NC[C@H](N)C(=O)O; X1 = O=C(C[*:2])[*:1]; X2 = O=C(C[*:1])[*:2]

compound	Kd
CC(C)C[C@@H]1NC(=O)[C@@H](NC(=O)[C@H](C)NC(=O)[C@H](CCCCN)NC(=O)[C@H](CCCCN)NC(=O)[C@@H](N)CCCCN)CCSCC(=O)NCC[C@@H](C(=O)N[C@@H](CC(=O)O)C(=O)O)NC(=O)[C@H](CCCNC(=N)N)NC(=O)[C@H](Cc2ccc(O)cc2)NC(=O)[C@H](CC(N)=O)NC(=O)[C@H](CC(=O)O)NC(=O)CNC(=O)[C@H](CCCNC(=N)N)NC(=O)[C@@H]2CCCN2C1=O [Cyclic peptide 31, KKKA-(Hcy)-LPRGDNYR(Dab(acetyl))D] (H-KKKA[hCys]LPRGDNYR[Dab]D-OH; linker 5-14 via X2)	< 50 nM
C[C@H](NC(=O)[C@@H]1CCNC(=O)CSCC[C@H](NC(=O)[C@H](C)NC(=O)[C@H](CCCCN)NC(=O)[C@H](CCCCN)NC(=O)[C@@H](N)CCCCN)C(=O)N[C@@H]([C@@H](C)O)C(=O)N2CCC[C@H]2C(=O)N[C@@H](CCCNC(=N)N)C(=O)NCC(=O)N[C@@H](CC(=O)O)C(=O)N[C@@H]([C@@H](C)O)C(=O)N[C@@H](Cc2ccccc2)C(=O)N[C@@H](CCCNC(=N)N)C(=O)N1)C(=O)O [Cyclic peptide 75, KKKA-(Hcy)-TPRGDTFR(Dab(acetyl))A] (H-KKKA[hCys]TPRGDTFR[Dab]A-OH; linker 5-14 via X2)	< 50 nM
CC[C@H](C)[C@@H]1NC(=O)[C@@H](NC(=O)[C@H](CCCCN)NC(=O)[C@H](CCCCN)NC(=O)[C@@H](N)CCCCN)CCSCC(=O)NCC[C@@H](C(=O)N[C@@H](C)C(=O)O)NC(=O)[C@H](C)NC(=O)[C@H](CCCNC(=N)N)NC(=O)[C@H](Cc2ccccc2)NC(=O)[C@H](CC(N)=O)NC(=O)[C@H](CC(=O)O)NC(=O)CNC(=O)[C@H](CCCNC(=N)N)NC(=O)[C@@H]2CCCN2C1=O [Cyclic peptide 16, KKK-(Hcy)-IPRGDNFRA(Dab(acetyl))A] (H-KKK[hCys]IPRGDNFRA[Dab]A-OH; linker 4-14 via X2)	50 to 100 nM
N=C(N)NCCC[C@@H]1NC(=O)[C@H](Cc2ccc(O)cc2)NC(=O)[C@H](CC(N)=O)NC(=O)[C@H](CC(=O)O)NC(=O)CNC(=O)[C@H](CCCNC(=N)N)NC(=O)[C@@H]2CCCN2C(=O)[C@H](CCC(=O)O)NC(=O)[C@@H](NC(=O)[C@H](CCCCN)NC(=O)[C@H](CCCCN)NC(=O)[C@@H](N)CCCCN)CNC(=O)CSCC[C@@H](C(=O)O)NC1=O [Cyclic peptide 46, KKK(Dap(acetyl))EPRGDNYR-(Hcy)] (H-KKK[Dap]EPRGDNYR[hCys]-OH; linker 4-13 via X1)	50 to 100 nM
